- experimentalTarget: 14-3-3γ (Homo sapiens)
- Construct: made in house; host or cells: E. coli NiCo21 (DE3)
- Sequence (P61981 1-247): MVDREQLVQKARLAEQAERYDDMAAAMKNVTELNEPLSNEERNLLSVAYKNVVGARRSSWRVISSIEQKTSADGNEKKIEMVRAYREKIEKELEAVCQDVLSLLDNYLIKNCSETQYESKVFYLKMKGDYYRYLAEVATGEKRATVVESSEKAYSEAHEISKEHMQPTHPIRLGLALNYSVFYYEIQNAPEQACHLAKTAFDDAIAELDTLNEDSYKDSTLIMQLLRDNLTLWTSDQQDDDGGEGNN
- protocolDescription: Isothermal titration calorimetry (ITC) of 14-3-3 binding to peptide
- testContext: Table S6; ITC, 25 °C; run 1
Where a SMILES comes first, the peptide text is derived from it. [ ]: non-standard residue; d: D form. ξ: configuration not given here. Phe(4-NO2) = N[C@@H](Cc1ccc([N+](=O)[O-])cc1)C(=O)O; ξAla(4-thiazolyl) = NC(Cc1cscn1)C(=O)O; pS = N[C@@H](COP(=O)(O)O)C(=O)O; β3hS = N[C@@H](CO)CC(=O)O; Nva = CCC[C@H](N)C(=O)O; βAla = NCCC(=O)O
reportedMetric: ΔG

compound	ΔG
CCC[C@H](NC(=O)[C@H](N)CCCCN)C(=O)N[C@@H](Cc1ccc([N+](=O)[O-])cc1)C(=O)NC(Cc1cscn1)C(=O)N[C@@H](COP(=O)(O)O)C(=O)N[C@@H](Cc1ccc([N+](=O)[O-])cc1)C(=O)N[C@@H](CO)CC(=O)NCCC(=O)N[C@@H](Cc1ccc(O)cc1)C(=O)N[C@@H](CCCCN)C(N)=O (stereo partly drawn) [5a] (H-[dK][Nva][Phe(4-NO2)][ξAla(4-thiazolyl)][pS][Phe(4-NO2)][β3hS][βAla]YK-NH2; N-terminus and C-terminus assumed)	-7,925 kcal mol^-1
CCC[C@H](NC(=O)[C@H](N)CCCCN)C(=O)N[C@@H](Cc1ccc([N+](=O)[O-])cc1)C(=O)NC(Cc1cscn1)C(=O)N[C@@H](COP(=O)(O)O)C(=O)N[C@@H](Cc1ccc(O)cc1)C(=O)N[C@@H](CO)CC(=O)NCCC(=O)N[C@@H](Cc1ccc([N+](=O)[O-])cc1)C(=O)N[C@@H](CCCCN)C(N)=O (stereo partly drawn) [4a] (H-[dK][Nva][Phe(4-NO2)][ξAla(4-thiazolyl)][pS]Y[β3hS][βAla][Phe(4-NO2)]K-NH2; N-terminus and C-terminus assumed)	-9,411 kcal mol^-1
CCC[C@H](NC(=O)[C@H](N)CCCCN)C(=O)N[C@@H](Cc1ccc([N+](=O)[O-])cc1)C(=O)N[C@@H](C)C(=O)N[C@@H](COP(=O)(O)O)C(=O)N[C@@H](Cc1ccc([N+](=O)[O-])cc1)C(=O)N[C@@H](CO)CC(=O)NCCC(=O)N[C@@H](Cc1ccc([N+](=O)[O-])cc1)C(=O)N[C@@H](CCCCN)C(N)=O [3a] (H-[dK][Nva][Phe(4-NO2)]A[pS][Phe(4-NO2)][β3hS][βAla][Phe(4-NO2)]K-NH2; N-terminus and C-terminus assumed)	-9,622 kcal mol^-1

Ask: Please give the measured ΔG for this compound: CCC[C@H](NC(=O)[C@H](N)CCCCN)C(=O)N[C@@H](Cc1ccc([N+](=O)[O-])cc1)C(=O)NC(Cc1cscn1)C(=O)N[C@@H](COP(=O)(O)O)C(=O)N[C@@H](Cc1ccccc1)C(=O)N[C@@H](CO)CC(=O)NCCC(=O)N[C@@H](Cc1ccc([N+](=O)[O-])cc1)C(=O)N[C@@H](CCCCN)C(N)=O (stereo partly drawn) [4b] (H-[dK][Nva][Phe(4-NO2)][ξAla(4-thiazolyl)][pS]F[β3hS][βAla][Phe(4-NO2)]K-NH2; N-terminus and C-terminus assumed)
Reply: -10,34 kcal mol^-1

Ask: Please give the measured ΔG for this compound: CCC[C@H](NC(=O)[C@H](N)CCCCN)C(=O)N[C@@H](Cc1ccc([N+](=O)[O-])cc1)C(=O)NC(Cc1cscn1)C(=O)N[C@@H](COP(=O)(O)O)C(=O)N[C@@H](C)C(=O)N[C@@H](CO)CC(=O)NCCC(=O)N[C@@H](Cc1ccc([N+](=O)[O-])cc1)C(=O)N[C@@H](CCCCN)C(N)=O (stereo partly drawn) [4c] (H-[dK][Nva][Phe(4-NO2)][ξAla(4-thiazolyl)][pS]A[β3hS][βAla][Phe(4-NO2)]K-NH2; N-terminus and C-terminus assumed)
Reply: -8,421 kcal mol^-1
